Endpoint: log(1/C). System: Dihydrofolate reductase (Rattus norvegicus). Items follow.
// print number alone

{"columns": ["compound", "recorded_metric", "numeric_readout"],
 "data": [
  ["Nc1nc(N)c2c(CSc3ccc(Cl)cc3)cccc2n1", "log(1/C)", 7.7],
  ["Nc1nc(N)c2cc(CNC(=O)c3cccc(C(F)(F)F)c3)ccc2n1", "log(1/C)", 6.59],
  ["Nc1nc(N)c2cc(NC(=O)Cc3ccc(Cl)cc3)ccc2n1", "log(1/C)", 7.64],
  ["Nc1nc(N)c2c([S+]([O-])c3ccc4ccccc4c3)cccc2n1 (stereo not drawn)", "log(1/C)", 4.35],
  ["Nc1nc(S)c2cc(S(=O)(=O)c3ccc4ccccc4c3)ccc2n1", "log(1/C)", 7.6]
]}

// lookup log(1/C) for Nc1nc(N)c2c(/C=C\c3ccc4ccccc4c3)cccc2n1
6.52

Repeat with Nc1nc(O)c2cc([S+]([O-])c3ccc4ccccc4c3)ccc2n1 (stereo not drawn)
7.38

Repeat with O=c1[nH]cnc2ccccc12
3.62

Repeat with Nc1nc(N)c2cc(NCc3ccc(Cl)c(Cl)c3)ccc2n1
7.74

* * *

Endpoint: log(1/C). System: Dihydrofolate reductase (Rattus norvegicus). Items follow.
// print number alone

# example entries with known answers
{"columns": ["mol", "numeric_readout"],
 "data": [
  ["CC(=O)Nc1nc(O)c2ccccc2n1", 4.28],
  ["Oc1nc(S)nc2ccc(Sc3ccc4ccccc4c3)cc12", 5],
  ["Nc1nc(N)c2c(CCc3ccc4ccccc4c3)cccc2n1", 7.7],
  ["O=c1[nH]c(=S)c2cc(Sc3ccc4ccccc4c3)ccc2[nH]1", 5.24],
  ["Nc1ccc2nc(N)nc(N)c2c1", 4.57]
]}

// lookup log(1/C) for Cc1c(NC(=O)CCc2ccc(Cl)cc2)ccc2nc(N)nc(N)c12
7.48

Repeat with Nc1nc(O)c2cc(Sc3ccc4ccccc4c3)ccc2n1
7.35

Repeat with Cc1c(NC(=O)Cc2cccc(C(F)(F)F)c2)ccc2nc(N)nc(N)c12
7.23

Repeat with Nc1nc(N)c2c(Sc3ccc(Cl)c(Cl)c3)cccc2n1
6.8

Repeat with Nc1ncnc2ccc(Sc3ccc4ccccc4c3)cc12
4.68

Repeat with Nc1nc(O)c2ccc(C(F)(F)F)cc2n1
4.35

* * *

Endpoint: log(1/C). System: UniProt:Q920D2. Items follow.
// print number alone

{"columns": ["molecule", "measured_on", "log(1/C)"],
 "data": [
  ["Cc1c(NC(=O)C(Sc2ccc3ccccc3c2)C(C)C)ccc2nc(N)nc(N)c12 (centres undefined)", "UniProt:Q920D2", 7.68],
  ["Nc1ncnc2ccc(S(=O)(=O)c3ccc4ccccc4c3)cc12", "UniProt:Q920D2", 5.47],
  ["Nc1nc(N)c2c(Cl)c(N)ccc2n1", "UniProt:Q920D2", 6.18]
]}

// below: log(1/C) requested for another molecule
// lookup log(1/C) for Nc1nc(N)c2cc(NC(=O)Cc3cccc(C(F)(F)F)c3)ccc2n1
7.02

* * *

Endpoint: log(1/C). System: Dihydrofolate reductase (Rattus norvegicus) (UniProt Q920D2). Items follow.
// print number alone

{"columns": ["mol", "log(1/C)"],
 "data": [
  ["Nc1nc(O)c2cc(Sc3ccc(Cl)c(Cl)c3)ccc2n1", 6.92],
  ["Nc1nc(N)c2c(Cl)c(NC(=O)COc3ccc4ccccc4c3)ccc2n1", 7.85],
  ["Cc1ccc2nc(N)nc(O)c2c1", 4.44],
  ["Cc1c(NC(=O)CSc2ccc3ccccc3c2)ccc2nc(N)nc(N)c12", 8.27],
  ["Nc1nc(N)c2c(Cl)c(NC(=O)Cc3cccc(C(F)(F)F)c3)ccc2n1", 7.64],
  ["Nc1nc(N)c2cc(CNC(=O)c3ccc4ccccc4c3)ccc2n1", 7],
  ["Nc1nc(N)c2cc(Sc3cccc(C(F)(F)F)c3)ccc2n1", 7.44],
  ["Nc1nc(N)c2cc(NC(=O)Cc3ccc(Cl)c(Cl)c3)ccc2n1", 7.51],
  ["Nc1nc(N)c2cc(C=O)ccc2n1", 5]
]}

// below: log(1/C) requested for another molecule
// lookup log(1/C) for Nc1nc(N)c2cc(Cl)ccc2n1
5.4
